- Experimental Target: human TLR9 (Homo sapiens)
- Sequence (Q9NR96 26-1032): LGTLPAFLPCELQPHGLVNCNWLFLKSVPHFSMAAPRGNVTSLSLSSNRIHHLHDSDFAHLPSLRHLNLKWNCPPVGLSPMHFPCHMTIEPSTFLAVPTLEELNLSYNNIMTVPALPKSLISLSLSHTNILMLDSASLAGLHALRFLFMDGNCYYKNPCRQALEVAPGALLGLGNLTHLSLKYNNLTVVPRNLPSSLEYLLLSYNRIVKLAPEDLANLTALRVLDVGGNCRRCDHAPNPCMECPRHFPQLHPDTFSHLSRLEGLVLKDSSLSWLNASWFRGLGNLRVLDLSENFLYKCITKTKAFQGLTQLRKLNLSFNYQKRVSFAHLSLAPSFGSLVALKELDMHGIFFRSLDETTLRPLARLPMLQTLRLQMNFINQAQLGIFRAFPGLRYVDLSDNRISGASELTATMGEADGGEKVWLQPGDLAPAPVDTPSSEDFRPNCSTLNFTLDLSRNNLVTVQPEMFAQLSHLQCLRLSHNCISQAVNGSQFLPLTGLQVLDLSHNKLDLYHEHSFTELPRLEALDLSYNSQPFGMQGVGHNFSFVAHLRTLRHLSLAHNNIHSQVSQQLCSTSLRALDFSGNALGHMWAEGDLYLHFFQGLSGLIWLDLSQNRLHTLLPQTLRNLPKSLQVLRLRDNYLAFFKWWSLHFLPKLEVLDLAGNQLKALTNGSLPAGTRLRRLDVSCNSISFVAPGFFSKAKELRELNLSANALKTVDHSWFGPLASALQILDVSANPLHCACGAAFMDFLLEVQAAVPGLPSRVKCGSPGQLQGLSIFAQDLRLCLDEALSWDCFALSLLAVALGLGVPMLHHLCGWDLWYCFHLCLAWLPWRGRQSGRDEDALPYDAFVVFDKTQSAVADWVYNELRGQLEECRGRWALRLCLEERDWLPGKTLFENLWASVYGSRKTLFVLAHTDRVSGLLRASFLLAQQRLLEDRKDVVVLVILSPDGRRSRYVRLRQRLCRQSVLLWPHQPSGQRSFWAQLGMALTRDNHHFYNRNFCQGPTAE
- Experimental Details: TLR9 inhibition reporter assay (HEK-Blue SEAP)
- Recorded Conditions: HEK-Blue cells overexpressing human TLR9, stimulated with ODN2006 5 nM, 22 h incubation
Test Readout: log10 IC50 (log10 of the value in µM)
Would you kindly interpret these values as log10 of IC50 expressed in µM?

Hello, I am looking for reported log10 IC50 with human TLR9 (Homo sapiens) for COc1cc(-c2cc3[nH]c4ccc(C5CCCN(C6COC6)C5)cc4c3c(C)c2C)cn2ncnc12 (centres unmarked) . Could you help?
0.09

Also Cc1cc(-c2cc(C)c3c(c2)[nH]c2ccc(C4CCN(CC(C)(C)O)CC4)cc23)cc(C)n1 , if possible.
-1.22

Also COc1cc(-c2cc3[nH]c4ccc(C5CNC5)cc4c3c(C)c2C)cn2ncnc12 , if possible.
-0.64

Also COc1cc(-c2cc3[nH]c4ccc(C5CCCNC5)cc4c3c(C)c2C)cn2ncnc12 (centres unmarked) , if possible.
-0.57

Also Cc1cc(-c2cc(C)c3ncnn3c2)cc2[nH]c3ccc(C4CCNCC4)cc3c12 , if possible.
-0.46

Also Cc1c(-c2ccc3c(c2)[nH]c2ccc(C4CCNCC4)cc23)cn(C)c(=O)c1C , if possible.
-0.74

New cases:
Hello, I am looking for reported log10 IC50 with human TLR9 (Homo sapiens) for COc1cc(-c2cc3[nH]c4ccc(C5CN(CC(C)(C)O)C5)cc4c3c(C)c2C)cn2ncnc12 . Could you help?
-0.29

Also c1cncc(-c2ccc3c(c2)[nH]c2ccc(C4CCNCC4)cc23)c1 , if possible.
-0.27

Also COc1cc(-c2cc3[nH]c4ccc(C5CCCN(CCS(C)(=O)=O)C5)cc4c3c(C)c2C)cn2ncnc12 (centres unmarked) , if possible.
-0.10

Also COc1cc(-c2cc(C)c3c(c2)[nH]c2ccc(C4CCN(CC(C)(C)O)CC4)cc23)cn2ncnc12 , if possible.
-0.65

Also COc1cc(-c2cc3[nH]c4ccc(C5CCCN(C(=O)CN(C)C)C5)cc4c3c(C)c2C)cn2ncnc12 (centres unmarked) , if possible.
0.07

Also COc1cc(-c2cc3[nH]c4ccc(C5CN(CC#N)C5)cc4c3c(C)c2C)cn2ncnc12 , if possible.
0.09

---

- Experimental Target: human TLR8 (Homo sapiens, UniProt Q9NR97)
- Sequence (Q9NR97 27-1041): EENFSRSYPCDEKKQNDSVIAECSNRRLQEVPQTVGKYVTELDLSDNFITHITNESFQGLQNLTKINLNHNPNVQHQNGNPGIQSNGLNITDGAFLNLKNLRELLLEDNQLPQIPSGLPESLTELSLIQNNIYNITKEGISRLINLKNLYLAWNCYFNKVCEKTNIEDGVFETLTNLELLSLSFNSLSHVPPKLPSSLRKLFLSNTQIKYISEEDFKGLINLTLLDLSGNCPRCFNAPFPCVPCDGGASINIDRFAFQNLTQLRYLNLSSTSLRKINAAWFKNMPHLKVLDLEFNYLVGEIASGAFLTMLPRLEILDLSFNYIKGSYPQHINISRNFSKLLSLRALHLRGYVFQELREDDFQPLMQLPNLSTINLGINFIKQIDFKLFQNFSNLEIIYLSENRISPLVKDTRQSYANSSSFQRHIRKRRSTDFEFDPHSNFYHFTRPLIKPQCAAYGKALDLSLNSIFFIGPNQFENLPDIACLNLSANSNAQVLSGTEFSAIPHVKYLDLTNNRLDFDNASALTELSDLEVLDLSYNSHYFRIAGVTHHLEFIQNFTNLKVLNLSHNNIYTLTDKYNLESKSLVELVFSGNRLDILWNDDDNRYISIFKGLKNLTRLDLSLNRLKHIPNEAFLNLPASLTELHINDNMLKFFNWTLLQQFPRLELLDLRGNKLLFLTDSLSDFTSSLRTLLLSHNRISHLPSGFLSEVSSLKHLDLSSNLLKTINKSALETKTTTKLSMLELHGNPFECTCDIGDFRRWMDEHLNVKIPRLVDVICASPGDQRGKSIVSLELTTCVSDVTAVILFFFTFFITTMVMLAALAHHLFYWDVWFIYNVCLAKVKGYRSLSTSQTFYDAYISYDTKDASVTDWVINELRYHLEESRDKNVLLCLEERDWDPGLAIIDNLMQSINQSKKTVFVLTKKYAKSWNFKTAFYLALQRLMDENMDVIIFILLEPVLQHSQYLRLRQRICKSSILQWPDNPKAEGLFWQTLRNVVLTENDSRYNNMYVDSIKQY
- Experimental Details: TLR8 inhibition reporter assay (HEK-Blue SEAP)
- Recorded Conditions: HEK-Blue cells overexpressing human TLR8, stimulated with R848 15.9 µM, 22 h incubation
Test Readout: pIC50
Kindly note that pIC50 refers to -log10 of the concentration in mol/L and answer with the value alone.

These recorded examples may help you get a feel for the data.
Endpoint output: pIC50 of COc1cc(-c2cc(C)c3c(c2)[nH]c2ccc(C4CCNCC4)cc23)cn2ncnc12 . Value?
8.17

Also COc1cc(-c2cc3[nH]c4ccc(C5CN(CC(C)(C)O)C5)cc4c3c(C)c2C)cn2ncnc12 , if possible.
9.40

Also Cc1cc2c(cc1-c1cn(C)c(=O)c(C)c1C)[nH]c1ccc(C3CCNCC3)cc12 , if possible.
8.26

New cases:
Endpoint output: pIC50 of COc1cc(-c2cc3[nH]c4ccc(C5CN(C6COC6)C5)cc4c3c(C)c2C)cn2ncnc12 . Value?
8.74

Also COc1cc(-c2cc3[nH]c4ccc(C5CCCN(C(=O)CN(C)C)C5)cc4c3c(C)c2C)cn2ncnc12 (centres unmarked) , if possible.
8.42

---

Examples of molecules with documented pIC50 follow.
- Experimental Target: human TLR9 (Homo sapiens)
- Construct: host or cells: HEK-Blue cells
- Sequence (Q9NR96 26-1032): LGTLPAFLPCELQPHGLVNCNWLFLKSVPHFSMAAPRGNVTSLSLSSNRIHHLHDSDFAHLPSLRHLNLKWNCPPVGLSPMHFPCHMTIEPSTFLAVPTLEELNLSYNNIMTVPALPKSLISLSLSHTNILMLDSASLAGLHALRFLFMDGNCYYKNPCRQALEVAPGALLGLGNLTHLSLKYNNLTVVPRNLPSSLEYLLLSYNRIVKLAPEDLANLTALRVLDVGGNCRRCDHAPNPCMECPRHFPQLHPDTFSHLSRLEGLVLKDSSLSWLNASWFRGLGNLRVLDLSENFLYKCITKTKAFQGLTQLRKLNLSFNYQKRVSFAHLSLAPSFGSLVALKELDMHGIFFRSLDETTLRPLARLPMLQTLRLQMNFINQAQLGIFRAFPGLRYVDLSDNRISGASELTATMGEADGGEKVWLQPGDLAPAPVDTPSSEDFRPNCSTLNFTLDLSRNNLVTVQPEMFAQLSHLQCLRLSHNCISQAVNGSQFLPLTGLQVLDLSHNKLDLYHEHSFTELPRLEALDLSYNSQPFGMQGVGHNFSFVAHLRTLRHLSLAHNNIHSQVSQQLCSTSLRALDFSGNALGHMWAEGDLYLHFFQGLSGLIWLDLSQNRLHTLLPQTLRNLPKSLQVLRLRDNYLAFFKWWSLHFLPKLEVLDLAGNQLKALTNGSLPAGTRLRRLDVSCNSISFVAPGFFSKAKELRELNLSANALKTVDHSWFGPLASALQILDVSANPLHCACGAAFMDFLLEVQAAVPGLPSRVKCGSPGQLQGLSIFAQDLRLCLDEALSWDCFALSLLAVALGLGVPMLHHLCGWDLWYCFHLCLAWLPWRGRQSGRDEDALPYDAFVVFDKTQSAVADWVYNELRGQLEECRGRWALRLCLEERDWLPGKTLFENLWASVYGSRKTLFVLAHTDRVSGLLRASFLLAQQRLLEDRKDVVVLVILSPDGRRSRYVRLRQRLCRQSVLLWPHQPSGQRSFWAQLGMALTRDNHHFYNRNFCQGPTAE
- Experimental Details: TLR9 inhibition reporter assay (HEK-Blue SEAP)
- Type: cell-based
- Recorded Conditions: HEK-Blue cells overexpressing human TLR9, stimulated with ODN2006 5 nM, 22 h incubation
Kindly note that pIC50 refers to -log10 of the concentration in mol/L and answer with the value alone.

Endpoint output: pIC50 of Cc1cc2c(cc1-c1cn(C)c(=O)c(C)c1C)[nH]c1ccc(C3CCN(CC(C)(C)O)CC3)cc12 . Value?
6.41

Also COc1cc(-c2cc3[nH]c4ccc(C5CN(C(=O)CN(C)C)C5)cc4c3c(C)c2C)cn2ncnc12 , if possible.
6.07

Also COc1cc(-c2cc3[nH]c4ccc(C5CCNCC5)cc4c3cc2C)cn2ncnc12 , if possible.
6.97

Also Cc1cc(-c2ccc3c(c2)[nH]c2ccc(C4CCNCC4)cc23)cn2ncnc12 , if possible.
6.18

Also Cc1noc(C)c1-c1ccc2c(c1)[nH]c1ccc(C3CCNCC3)cc12 , if possible.
5.97

Also c1cc(-c2ccc3c(c2)[nH]c2ccc(C4CCNCC4)cc23)ccn1 , if possible.
6.52

Also COc1cc(-c2cc3[nH]c4ccc(C5CCNCC5)cc4c3c(C)c2C)cn2ncnc12 , if possible.
7.02
